Biological target: GST-Bfl-1 (Homo sapiens)
Construct: lacking their C-terminal transmembrane domains (about the last 20 amino acids) (“ΔTM”); made in house; host or cells: XL-1 Blue E. coli, pGEX 4T-1
Sequence (Q16548 1-155 limits assumed): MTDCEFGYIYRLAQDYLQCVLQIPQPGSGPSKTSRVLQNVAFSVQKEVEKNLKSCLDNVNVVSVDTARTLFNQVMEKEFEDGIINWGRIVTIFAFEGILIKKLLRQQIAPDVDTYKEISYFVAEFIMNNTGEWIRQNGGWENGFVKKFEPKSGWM
Assay: Bfl-1/FITC-Bid BH3 competitive fluorescence polarization assay
Assay type: binding
Conditions: primary HTS hits, MLSCN library (PubChem SIDs), Table 5B
Threshold check on FRatio: at or above 0.8 gives Satisfied, strictly below gives Not satisfied.

Known results for molecules:
[in] Reported FRatio at or above 0.8? COc1ccc2c(c1)c(=O)oc1cc(OCC(=O)N3CCc4ccccc4C3)ccc12
[out] Not satisfied

[in] Entry Cc1ccc2c(c1C)NC(C(=O)O)C1CC=CC21 (centres unmarked) : is its FRatio no less than 0.8?
[out] Not satisfied

[in] Does O=C(CCN1CCc2ccccc21)c1ccc2c(c1)OCCO2 have a reported FRatio of at least 0.8?
[out] Not satisfied

[in] Does the molecule O=C(NCc1ccco1)c1c2c(nc3ccccc13)CCC2 have recorded FRatio that is 0.8 or more?
[out] Satisfied

As a next step, examine the molecule that follows.
[in] Please tell me: is the molecule COc1ccccc1NCCC(=O)OCC(=O)NCc1ccco1 at or over 0.8 in terms of FRatio?
[out] Satisfied

* * *

Entries and their % Activity
Biological target: GST-Bfl-1 (Homo sapiens)
Construct: lacking their C-terminal transmembrane domains (about the last 20 amino acids) (“ΔTM”); made in house; host or cells: XL-1 Blue E. coli, pGEX 4T-1
Experiment: Bfl-1/FITC-Bid BH3 competitive fluorescence polarization assay
Assay type: binding
Settings: primary HTS hits, MLSCN library (PubChem SIDs), Table 5B

The following compounds have reported results that may help.
[in] Fill in % Activity for CCn1c(SC(C)C(=O)O)nc2sc3c(c2c1=O)CCC3 (stereo not shown) tested with GST-Bfl-1 (Homo sapiens).
[out] 95.1%

[in] Please look at Cc1cc(C)c(NC(=O)CN(c2ccccc2)S(=O)(=O)N(C)C)c(C)c1 and tell me its recorded % Activity on GST-Bfl-1 (Homo sapiens).
[out] 90.5%

[in] Check GST-Bfl-1 (Homo sapiens) data and give % Activity for Cc1c(NC(=O)c2cc3nc(-c4ccccc4)cc(C)n3n2)c(=O)n(-c2ccccc2)n1C .
[out] 63.5%

[in] Provide GST-Bfl-1 (Homo sapiens) % Activity reading for Cc1cc(-c2csc(N)n2)c(C)n1C .
[out] 69.5%

[in] Jot down % Activity (GST-Bfl-1 (Homo sapiens)) of O=C(Cc1ccccc1)Nc1ccc(N2CCCC2)cc1 .
[out] 59.1%

[in] Give measured % Activity for COc1ccc(C(N)CCc2ccc(C)o2)cc1 (stereo not shown) (GST-Bfl-1 (Homo sapiens)).
[out] 67.6%

[in] Param request: % Activity | system GST-Bfl-1 (Homo sapiens) | item Cc1ccc(-n2c(SCc3cc(=O)n4ccsc4n3)nnc2-c2cccnc2)c(C)c1
[out] 80.3%

[in] Name the value of % Activity reported for O=C(COC(=O)c1cccs1)NCc1ccco1 when tested on GST-Bfl-1 (Homo sapiens).
[out] 79.7%

New cases:
[in] Retrieve % Activity on GST-Bfl-1 (Homo sapiens); query Cc1ccc2c(c1C)NC(C(=O)O)C1CC=CC21 (stereo not shown)
[out] 98.3%

[in] Provide GST-Bfl-1 (Homo sapiens) % Activity reading for CC(=O)Nc1ccc(OC(=O)CC2SC(=O)NC2=O)cc1 (stereo not shown) .
[out] 68.2%

[in] Send back GST-Bfl-1 (Homo sapiens) % Activity of O=C(COC(=O)CC12CC3CC(CC(C3)C1)C2)Nc1ncc(Cl)cc1Cl only.
[out] 52%

[in] // fetch % Activity for Cc1c(Cl)cnc(NC(=O)COC(=O)C(NC(=O)c2ccco2)C(C)C)c1Cl (stereo not shown) ; system: GST-Bfl-1 (Homo sapiens)
[out] 108.1%

[in] GET % Activity where system = GST-Bfl-1 (Homo sapiens) and item = Cc1ccc(N2CN=c3s/c(=C\c4cccnc4)c(=O)n3C2)cc1
[out] 78.6%

[in] Find % Activity for Cc1c[nH]c2cccc(OCC(O)CNC(C)(C)C)c12 (stereo not shown) on GST-Bfl-1 (Homo sapiens) and write it down.
[out] 52.2%

[in] Recall the reported % Activity of COc1ccc(N2C(=O)c3cccc4cccc(c34)C2=O)nn1 when tested on GST-Bfl-1 (Homo sapiens).
[out] 58.8%

[in] Specify % Activity for Cc1cc(Cl)ccc1OCC(=O)OC(C)C(=O)N(C)C (stereo not shown) , system GST-Bfl-1 (Homo sapiens).
[out] 53.3%

[in] Please tell me the measured % Activity for Oc1ccc(-c2cn3c(n2)SCC3)cc1O ; system: GST-Bfl-1 (Homo sapiens).
[out] 77.7%

[in] Name the recorded % Activity of COCc1cc(C2SCC(=O)Nc3c2c(O)nn3C(C)C)ccc1OC (stereo not shown) , assay system GST-Bfl-1 (Homo sapiens).
[out] 67.1%

[in] Write % Activity of O=C(O)CCc1ccc(-c2cccs2)n1CCC(=O)O ; system used: GST-Bfl-1 (Homo sapiens)
[out] 74.6%
